Test: Human HepG2 cell viability assay in 384 well format
Assay type: toxicity, cell-based
Set-up: dose 125 nL, time 70.5 hour; concentration not given beside the values
Details: HepG2 cells, read-out: Inhibition
Assay Readout: cytotoxicity at 70.5 h (%)

# Compound, Assay Readout, Result
measured = [
    ("Cc1cc(C(=O)NCC(F)(F)F)c2c(C3CCCN3)noc2n1 (stereo unspecified)", "cytotoxicity at 70.5 h", -7.21),
    ("O=C(NC[C@@H]1C[C@@H]2CN(C(=O)CO)C[C@H]2O1)c1ccsc1", "cytotoxicity at 70.5 h", 21),
    ("O=C(Cc1cccc(F)c1)NCCNCc1ccc2c(c1)CCO2", "cytotoxicity at 70.5 h", 6.87),
    ("CNc1nc(CNC(=O)Nc2cccc(COCCOC(C)C)c2)cs1", "cytotoxicity at 70.5 h", 2.29),
    ("O=C(CCCc1ccccn1)N1CCSC2(CCCCC2)C1", "cytotoxicity at 70.5 h", 18.8),
    ("Cc1ccc(S(=O)(=O)N2CCN(C)C3(CCC(=O)N(C)CC3)C2)s1 (stereo unspecified)", "cytotoxicity at 70.5 h", -5.58),
]
